Values from paper PMC11480844

B1: H2-Kb / B2 (parent)
chain 1: GEQVEQRPPHLSVREGDSAVIICTYTDPNSYYFFWYKQEPGAGLQLLMKVFSSTEINEGQGFTVLLNKKDKQLSLNLTAAHPGDSAVYFCAVSQMSNYNVLYFGSGTKLTVEP
chain 2: EAAVTQSPRNKVAVTGGKVTLSCNQTNNHNNMYWYRQDTGHGLRLIHYSYGAGSTEKGDIPDGYKASRPSQENFSLILELATPSQTSVYFCASGTGGSGQLYFGEGSKLTVL
chain 3: not shown
chain 4: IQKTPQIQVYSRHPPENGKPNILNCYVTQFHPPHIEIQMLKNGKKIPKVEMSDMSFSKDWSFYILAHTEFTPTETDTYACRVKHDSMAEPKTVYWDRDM
chain 5: SIINFEKL

- Variants of: B1
- protocol-summary: % of reporter cells activated (NFAT-GFP), raw; further: test concentration or dose not given here
- test-context: with B2; scale: % of reporter cells activated
Rule for this label: Satisfied means ratio to parent is less than 0.7; Not satisfied means ratio to parent is at least 0.7.

mut	classification
chain 5 S1I	Not satisfied
chain 5 E6L	Satisfied
chain 5 I2C	Not satisfied
chain 5 S1P	Not satisfied
chain 5 S1W	Not satisfied
chain 5 N4V	Satisfied
chain 5 E6Q	Not satisfied
chain 5 I2P	Not satisfied

Given chain 5 S1F , is recorded ratio to parent strictly lower than 0.7?
Not satisfied

Given chain 5 E6W , is recorded ratio to parent strictly lower than 0.7?
Satisfied

Given chain 5 F5D , is recorded ratio to parent strictly lower than 0.7?
Not satisfied

Given chain 5 E6F , is recorded ratio to parent strictly lower than 0.7?
Satisfied

Given chain 5 I3A , is recorded ratio to parent strictly lower than 0.7?
Not satisfied

Given chain 5 S1N , is recorded ratio to parent strictly lower than 0.7?
Satisfied
